- Target desc: T1, biotinylated CRH (human and mouse, not fully specified; biotinylated, position not stated)
- T1 construct: also called Biotin-CRH; biotin-labeled CRH
- T1 peptide: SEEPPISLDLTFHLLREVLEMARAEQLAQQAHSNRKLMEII
- Measurement description: Octet BLI, biotinylated CRH on SA sensor
Under this convention, label 1 denotes kon strictly below 400000 M⁻¹ s⁻¹ and label 0 denotes kon at or above 400000 M⁻¹ s⁻¹.

{"columns": ["Binder", "Class name"],
 "data": [
  ["PR302341-28 (antibody, human IgG1, kappa, V domains shown, Humanized, PTM-removed variant of PR302341) VH: QVQLVQSGAEVKKPGASVKVSCKASGYTFTDYFMKWVRQAPGQGLEWMGVINPNQGDIFYNQKFKGRVTMTVDKSISTAYMELSRLRSDDTAVYYCARGTDRALFAYWGQGTLVTVSS VL: DVVMTQSPLSLPVTLGQPASISCRSGQSIVHSDGNTYLEWYQQRPGQSPRLLIYKVSNRFSGVPDRFSGSGSGTDFTLKISRVEAEDLGVYYCFQGSHIPWTFGGGTKVEIKR", "label 0"],
  ["PR302334-8 (antibody, human IgG1, kappa, V domains shown, Humanized variant of PR302334) VH: EVQLVESGGGLVQPGGSLRLSCAASGFTFSTYAMSWVRQAPGKGLEWVASIRSGGTTYYPDSVKGRFTISRDNSKNTLYLQMNSLRAEDTAVYYCTRGIDWGQGTTVTVSS VL: EIVMTQSPATLSVSPGERATLSCKASQSVNNDVAWYQQKPGQAPRLLIYYASNRYTGIPARFSGSGSGTEFTLTISSLQSEDLAVYFCQQDYSSWTFGGGTKVEIKR", "label 1"]
]}

Q: Please determine if PR302341-48 (antibody, human IgG1, kappa, V domains shown, Humanized, PTM-removed variant of PR302341) VH: QVQLVQSGAEVKKPGASVKVSCKASGYTFTDYFMKWVRQAPGQGLEWMGVINPNQGDIFYNQKFKGRVTMTVDKSTSTAYMELSSLRSEDTAVYYCARGTDRALFAYWGQGTLVTVSS VL: DVVMTQTPLSSPVTLGQPASISCRSGQSIVHSDANTYLEWYQQRPGQPPRLLIYKVSNRFSGVPDRFSGSGAGTDFTLKISRVEAEDLGVYYCFQGSHIPWTFGGGTKVEIKR is below 400000 M⁻¹ s⁻¹ in terms of kon.
Ans: label 0

Q: Please determine if PR302334-25 (antibody, human IgG1, kappa, V domains shown, Humanized variant of PR302334) VH: EVQLVESGGGLVKPGGSLRLSCAASGFTFSTYAMSWVRQAPGKGLEWVASIRSGGTTYYPDSVKGRFTISRDNAKNSLYLQMNSLRAEDTAVYYCTRGIDWGQGTTVTVSS VL: DIQMTQSSLSASVSLGDRVTITCKASQSVNNDVAWYQQKPGKAPRLLIYYASNRYTGVPSRFSGSGSGTDFTFTISSLQPEDLATYFCQQDYSSWTFGGGTKVEIKR is below 400000 M⁻¹ s⁻¹ in terms of kon.
Ans: label 1

Q: Please determine if PR006153 (antibody, human IgG1, kappa, V domains shown, PTM-removal variant of PR004290) VH: EVQLVESGGVLVQPGGSLRLSCAASGFTFSSYWMTWVRQAPGKGLEWVANIKQDSSEKYYVDSVKGRFTISRDNAKNSLFLQMNSLRAEDTAVYYCARTLIFDYWGQGTLVTVSS VL: DIVMTQSPLSLPVTPGEPASISCRSSQSLLHSTGYSSLEWYLQKPGQSPQLLIYLGSNRASGVPDRFSGSGSGTDFTLKISRVEAEDVGIYYCMQTLQTPITFGQGTRLEIKR is below 400000 M⁻¹ s⁻¹ in terms of kon.
Ans: label 0

Q: Please determine if PR006142 (antibody, human IgG1, kappa, V domains shown, PTM-removal variant of PR004290) VH: EVQLVESGGVLVQPGGSLRLSCAASGFTFSSYWMTWVRQAPGKGLEWVANIKQEGSEKYYVDSVKGRFTISRDNAKNSLFLQMNSLRAEDTAVYYCARTLIFDYWGQGTLVTVSS VL: DIVMTQSPLSLPVTPGEPASISCRSSQSLLHSTGYDSLEWYLQKPGQSPQLLIYLGSNRASGVPDRFSGSGSGTDFTLKISRVEAEDVGIYYCMQTLQTPITFGQGTRLEIKR is below 400000 M⁻¹ s⁻¹ in terms of kon.
Ans: label 1

Q: Please determine if PR006146 (antibody, human IgG1, kappa, V domains shown, PTM-removal variant of PR004290) VH: EVQLVESGGVLVQPGGSLRLSCAASGFTFSSYWMTWVRQAPGKGLEWVANIKQDASEKYYVDSVKGRFTISRDNAKNSLFLQMNSLRAEDTAVYYCARTLIFDYWGQGTLVTVSS VL: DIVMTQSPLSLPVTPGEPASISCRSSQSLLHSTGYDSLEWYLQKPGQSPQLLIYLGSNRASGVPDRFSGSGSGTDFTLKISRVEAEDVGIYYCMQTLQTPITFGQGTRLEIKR is below 400000 M⁻¹ s⁻¹ in terms of kon.
Ans: label 0
